# TARGET OR TEST SYSTEM: T1, LILRA1 expressed on cells (human, UniProt O75019 17-489)
# T1 construct: whole, on cells; GFP-tagged; also called human LILRA1; CHO-LILRA1
# T1 sequence (O75019 17-489): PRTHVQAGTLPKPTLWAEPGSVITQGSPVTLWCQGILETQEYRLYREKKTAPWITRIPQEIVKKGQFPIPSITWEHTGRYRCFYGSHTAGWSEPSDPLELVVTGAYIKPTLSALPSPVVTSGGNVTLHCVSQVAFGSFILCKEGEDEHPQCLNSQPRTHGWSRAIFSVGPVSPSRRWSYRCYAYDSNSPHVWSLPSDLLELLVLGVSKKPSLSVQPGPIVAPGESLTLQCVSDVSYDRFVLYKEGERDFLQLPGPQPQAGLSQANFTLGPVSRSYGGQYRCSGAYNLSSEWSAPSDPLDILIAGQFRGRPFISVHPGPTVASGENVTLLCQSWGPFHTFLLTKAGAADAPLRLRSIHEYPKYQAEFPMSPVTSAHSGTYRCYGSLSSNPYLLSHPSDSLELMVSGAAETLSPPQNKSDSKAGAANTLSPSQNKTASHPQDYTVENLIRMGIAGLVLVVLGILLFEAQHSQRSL
# EXPERIMENTAL PROTOCOL: flow cytometry on CHO-LILRA1 cells, non-linear fit of the curves of FIG. 26E
PROPERTY MEASURED: MaxMFI

[
  {
    "BINDER": "D2M002-002 (antibody, V domains shown, Hit from immunised mice; also called clone #2; anti-LILRB1/2 clone #2) VH: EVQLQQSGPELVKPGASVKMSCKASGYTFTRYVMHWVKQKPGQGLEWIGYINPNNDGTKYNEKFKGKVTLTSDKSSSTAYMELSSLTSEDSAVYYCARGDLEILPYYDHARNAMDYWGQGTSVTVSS VL: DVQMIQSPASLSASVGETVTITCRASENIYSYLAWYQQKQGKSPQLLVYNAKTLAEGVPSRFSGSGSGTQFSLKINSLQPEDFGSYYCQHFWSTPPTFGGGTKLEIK",
    "OBSERVED MEASUREMENT": 19500
  },
  {
    "BINDER": "D2M002-126 (antibody, V domains shown, Humanized and optimized variant of D2M002-026) VH: QVQLVQSGAEVKKPGASVKVSCKASGYTFTSYWIEWVRQAPGQGLEWIGEILPGDESTNYNAKFKGRVTFTTDTSTSTAYMELRSLRSDDTAVYYCARSGAGGYDSGAFAYWGQGTLVTVSS VL: AIQLTQSPSSLSASVGDRVTITCRASESVDTYGNSFMHWYQQKPGKAPKLLVYRTSNLESGVPSRFSGSGSGTDFTLTISSLQPEDFATYYCQQSNEDPWTFGGGTKVEIK",
    "OBSERVED MEASUREMENT": 27500
  },
  {
    "BINDER": "D2M002-103HV1 (antibody, V domains shown, Humanized and optimized variant of the D2M002-002 lineage) VH: QVQLVQSGAEVKKPGASVKVSCKASGYTFTRYVMHWVRQAPGQRLEWIGYINPNNEETKYSQKFKGRVTLTRDTSASTAYMELSSLRSEDTAVYYCARADLEILPYYDHARYAMDYWGQGTLVTVSS VL: DIQMTQSPSSVSASVGDRVTITCRASENIYSHLAWYQQKPGKAPKLLVYNAKSLQSGVPSRFSGSGSGTDFTLTISSLQPEDFATYYCQHFWSTPPTFGGGTKVEIK",
    "OBSERVED MEASUREMENT": 20300
  },
  {
    "BINDER": "D2M002-026 (antibody, V domains shown, Hit; also called clone #26) VH: QVQLQQPGAELMKPGASVKISCKATGYTFSSYWIEWVKQRPGHGLEWIGEILPGDGSTNYNAKFKGQATFTADTSSNTAYMQFSSLTSEDSAVYYCARSGAGGYDSGAFAYWGQGTLVTVSS VL: DIVLTQSPASLAVSLGQRATISCRASESVDTYGNSFMHWYQQKPGQPPKLLVYRTSNLESGIPARFSGSGSGTDFTLTINPVEADDVATYYCQQSNEDPWTFGGGTKLEIK",
    "OBSERVED MEASUREMENT": 28100
  }
]
